Exercise: state measured pEC50 for each of the molecules provided.
tested on: SW480 colon cancer cells; assay: Cell viability assay (CellTiter-Blue); type: cell-based; settings: Homo sapiens, 96 h, four days
Bear in mind: pEC50 is minus log10 of a mol/L concentration; give just that figure.

Return reported pEC50; argument: Fc1cccc(-c2ccnc3[nH]c(-c4n[nH]c5ncc(-c6cncc(CNCc7ccccc7)c6)cc45)cc23)c1
5.61

Another molecule to look at: CC(C)(C)CC(=O)Nc1cncc(-c2cnc3[nH]nc(-c4cc5cccnc5[nH]4)c3c2)c1
5.70

----------
tested on: Wnt activity (Sp5-Luc reporter, SW480 colon carcinoma cells); assay: Wnt activity screening assay, Sp5-Luc reporter gene in SW480 cells; assay type: cell-based; details: Homo sapiens, overnight incubation
attribute_measured: EC50

Return reported EC50; argument: Cc1ccncc1-c1cnc2[nH]nc(-c3cc4c(-c5ccncc5)ccnc4[nH]3)c2c1 [Compound 117]
> 10 µM

Another compound to look at: c1ccc(CNCc2cncc(-c3cnc4[nH]nc(-c5cc6c(-c7ccncc7)ccnc6[nH]5)c4c3)c2)cc1 [Compound 136]
> 10 µM

Another compound to look at: O=C(Nc1cncc(-c2cnc3[nH]nc(-c4cc5cccnc5[nH]4)c3c2)c1)c1ccccc1 [Compound 263]
> 10 µM

Another compound to look at: Oc1cncc(-c2cnc3[nH]nc(-c4cc5c(-c6ccc(F)cc6)ccnc5[nH]4)c3c2)c1 [Compound 533]
> 10 µM

Another compound to look at: O=C(Nc1cncc(-c2cnc3[nH]nc(-c4cc5c(-c6cccnc6)ccnc5[nH]4)c3c2)c1)C1CC1 [Compound 104]
> 10 µM

Another compound to look at: CC(C)C(=O)Nc1cncc(-c2cnc3[nH]nc(-c4cc5c(-c6ccccc6F)ccnc5[nH]4)c3c2)c1 [Compound 65]
> 10 µM

Another compound to look at: CN(C)Cc1cncc(-c2cnc3[nH]nc(-c4cc5c(-c6cccnc6)ccnc5[nH]4)c3c2)c1 [Compound 97]
> 10 µM

Another compound to look at: c1cncc(-c2cnc3[nH]nc(-c4cc5cccnc5[nH]4)c3c2)c1 [Compound 256]
1.06 µM

Another compound to look at: Nc1cncc(-c2cnc3[nH]nc(-c4cc5c(-c6ccccc6F)ccnc5[nH]4)c3c2)c1 [Compound 59]
> 10 µM

Another compound to look at: c1cncc(-c2cnc3[nH]nc(-c4cc5c(-c6cccnc6)ccnc5[nH]4)c3c2)c1 [Compound 88]
> 10 µM

Another compound to look at: O=C(Nc1cncc(-c2cnc3[nH]nc(-c4cc5c(N6CCCCC6)ccnc5[nH]4)c3c2)c1)C1CC1 [Compound 188]
3.31 µM

FYI, the data here is from patent US10285983B2.
